Recorded values, source paper PMC5429698.

system: L. mexicana axenic amastigotes; test: Antileishmanial evaluation on axenic amastigotes (resazurin); type: cell-based; settings: 72 h treatment, 32 °C; read-out: IC50 (µM) ± SD L. mexicana axenic amastigotes
PARAMETER: IC50 (µM)
Return type: number; implicit unit µM.

query: Look at this molecule and give its reported IC50. CC(C)(C)c1ccc(CN2CCN(c3ccnc4cc(Cl)ccc34)CC2)cc1 [compound 100, reference compound]
result: 49.2

###

tested on: L. mexicana intramacrophage amastigotes in infected RAW.264.7 macrophages; test: microbe, parasite or virus in culture; type: cell-based; conditions: 48 h treatment; read-out: IC50 (µM) ± SD L. mexicana infected RAW.264.7 macrophages
PARAMETER: IC50 (µM)
Return type: number; implicit unit µM.

query: What is its IC50 for L. mexicana intramacrophage amastigotes in infected RAW.264.7 macrophages? Entry: Clc1ccc2nc(COCCn3cc(-c4ccc(-c5ccccc5)cc4)nn3)ccc2c1 [compound 92]
result: 8.25

query: What is its IC50 for L. mexicana intramacrophage amastigotes in infected RAW.264.7 macrophages? Entry: CC(C)(C)c1ccc(CN2CCN(c3ccnc4cc(Cl)ccc34)CC2)cc1 [compound 100, reference compound]
result: 27.5

###

biological target: LdGDP-MP (Leishmania donovani)
Sequence (E9BG32 entry or part of it): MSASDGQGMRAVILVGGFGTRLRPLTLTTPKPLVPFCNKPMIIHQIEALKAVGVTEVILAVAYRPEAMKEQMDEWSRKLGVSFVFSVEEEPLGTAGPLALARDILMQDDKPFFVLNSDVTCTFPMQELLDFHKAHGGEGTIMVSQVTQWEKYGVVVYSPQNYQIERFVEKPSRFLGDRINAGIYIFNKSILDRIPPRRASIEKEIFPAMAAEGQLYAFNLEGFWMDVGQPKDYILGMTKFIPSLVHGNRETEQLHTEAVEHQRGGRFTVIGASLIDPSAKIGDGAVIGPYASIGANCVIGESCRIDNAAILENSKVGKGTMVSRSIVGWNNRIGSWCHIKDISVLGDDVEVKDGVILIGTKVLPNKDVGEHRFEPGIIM
PARAMETER: Ki (µM)
Return type: number; implicit unit µM.

query: Look at this molecule and give its reported Ki. CC(C)(C)c1ccc(CN2CCN(c3ccnc4cc(Cl)ccc34)CC2)cc1 [compound 100, reference compound]
result: 61.8

###

Assignment: determine reported IC50 for the given compounds.
tested on: L. donovani axenic amastigotes; experiment: Antileishmanial evaluation on axenic amastigotes (resazurin); type: cell-based; settings: Leishmania donovani, 72 h, 72 h treatment, 37 °C; read-out: IC50 (µM) ± SD L. donovani axenic amastigotes

query: Look at this compound and give its reported IC50. `Clc1ccc2nc(COCCn3cc(-c4ccc(-c5ccccc5)cc4)nn3)ccc2c1`
result: > 100 µM

query: Look at this compound and give its reported IC50. CCCCCCCCCCCCCCCCOP(=O)([O-])OCC[N+](C)(C)C [Miltefosine, reference compound]
result: 2.08 µM

query: Look at this compound and give its reported IC50. Nc1nc2c(ncn2C2OC(Cn3cc(-c4ccc(-c5ccccc5)cc4)nn3)C(O)C2O)c(=O)[nH]1 (centres unmarked)
result: > 100 µM

query: Look at this compound and give its reported IC50. `O=C(NCc1ccccc1)c1ccc2nc(-c3ccccc3)c(-c3ccccc3)nc2c1`
result: > 100 µM

query: Look at this compound and give its reported IC50. CC(C)(C)c1ccc(CN2CCN(c3ccnc4cc(Cl)ccc34)CC2)cc1 [compound 100, reference compound]
result: 30 to 50 µM

###

assay: Cytotoxicity (resazurin); type: cell-based; conditions: mouse, RAW264.7 macrophages; 48 h incubation; read-out: Cytotoxicity CC50 (µM) ± SD RAW264.7 macrophages
PARAMETER: CC50 at 48 h

query: Look at this compound and give its reported CC50 at 48 h. Nc1nc2c(ncn2C2OC(Cn3cc(-c4ccc(-c5ccccc5)cc4)nn3)C(O)C2O)c(=O)[nH]1 (centres unmarked)
result: > 100 µM

query: Look at this compound and give its reported CC50 at 48 h. CCCCCCCCCCCCCCCCOP(=O)([O-])OCC[N+](C)(C)C [Miltefosine, reference compound]
result: > 25 µM

query: Look at this compound and give its reported CC50 at 48 h. `O=C(NCc1ccccc1)c1ccc2nc(-c3ccccc3)c(-c3ccccc3)nc2c1`
result: > 100 µM

query: Look at this compound and give its reported CC50 at 48 h. `Clc1ccc2nc(COCCn3cc(-c4ccc(-c5ccccc5)cc4)nn3)ccc2c1`
result: > 100 µM

query: Look at this compound and give its reported CC50 at 48 h. CC(C)(C)c1ccc(CN2CCN(c3ccnc4cc(Cl)ccc34)CC2)cc1 [compound 100, reference compound]
result: 62.1 µM
